All figures here come from paper PMC6736635.

# tested_system: PRC2-PHF19 (Homo sapiens, UniProt Q15910;Q15022;O75530;Q09028;Q5T6S3 1-746;1-739;1-441;1-425;1-580)
# protocol_description: fluorescence anisotropy
quantity_kind: pKd
Conceptually, pKd converts a concentration in mol/L into minus its log10.

Fill in the blank: the reported pKd of UUAGGGUUAGGGUUAGGGUUAGGG (structured_RNA) [G4 24 RNA] is ____.
7.47
